# TEST_DETAILS: Example 6 pharmacokinetics assay for efficacy study (plasma, liver)
# Format: in vivo, BALB/c nude mice
# ASSAY_CONTEXT: mouse, plasma, po, 100 mg/kg, p.o., QD × 21 days, read-out: Concentration in Plasma (mean ± SEM)
# Method: For efficacy study, compounds were tested in the A375 human melanoma xenografts. Known BRAF inhibitors encorafenib, and dabrafenib were used as positive controls. Encorafenib and dabrafenib were administered to BALB/c nude mice bearing A375 tumors on PG-D1 and dosed PO daily (QD) for 3 weeks. Encorafenib was dosed at 35 mg/kg. Dabrafenib was dosed at 100 mg/kg. […]
METRIC: concentration at 6 h (ng/mL)

compound="CC(C)(C)c1nc(-c2cccc(NS(=O)(=O)c3c(F)cccc3F)c2F)c(-c2ccnc(N)n2)s1 [Dabrafenib, dabrafenib, reference compound]" metric="concentration at 6 h" experimental_value=86.1
